Assay: 1-octanol/aqueous buffer distribution coefficient, log D of compound at pH 7.4
Assay type: physicochemical
Conditions: 1-octanol/aqueous buffer, read-out: logD
PARAMETER MEASURED: logD

## Task Indicate the recorded logD value for this compound: CN1CC[C@@H](C(=O)N[C@H]2c3ccccc3C[C@@H]2NC(=O)c2ccc3c(ccn3C)c2)C1
## Result 1.4

## Task Indicate the recorded logD value for this compound: Nc1ccncc1C(=O)N[C@H]1c2ccccc2C[C@@H]1NC(=O)c1nc2cc(F)c(F)cc2[nH]1
## Result 2.4

## Task Please list logD recorded for the compound Cn1c(C(=O)N[C@H]2Cc3ccccc3[C@@H]2NC(=O)c2cnccc2N)cc2ccccc21
## Result 4.1

## Task Write down logD measured for item Cn1ccc2cc(C(=O)N[C@H]3Cc4ccccc4[C@@H]3NC(=O)c3cnccc3N)c(F)cc21
## Result 3.1

## Task Give a short answer stating reported logD for Cn1ccc2cc(C(=O)N[C@H]3Cc4ccccc4[C@@H]3NC(=O)c3cnccc3N)cc(F)c21 .
## Result 4

## Task Supply recorded logD for CN1CCC[C@H]1CC(=O)N[C@H]1c2ccccc2C[C@@H]1NC(=O)c1ccc2c(ccn2C)c1 here.
## Result 1.7

## Task Check the records and state logD for Cc1ccc2[nH]c(C(=O)N[C@H]3Cc4ccccc4[C@@H]3C(=O)N[C@H]3CCCN(C)C3)cc2c1
## Result 3

## Task Return logD (reported value) for this compound: CN1CCO[C@@H](C(=O)N[C@H]2c3ccccc3C[C@@H]2NC(=O)c2ccc3c(ccn3C)c2)C1
## Result 2.4

## Task For Cc1ccc2[nH]c(C(=O)N[C@H]3Cc4ccccc4[C@@H]3NC(=O)[C@@H]3CNCCOC3)cc2c1 , write its logD.
## Result 2.6

## Task Determine its reported logD: Cc1ccc2[nH]c(C(=O)N[C@H]3Cc4ccccc4[C@@H]3NC(=O)[C@H]3COCCN(C)C3)cc2c1
## Result 3.7

[A] Nc1ccncc1C(=O)N[C@H]1c2ccccc2C[C@@H]1NC(=O)c1cc2c(F)cc(F)cc2[nH]1
[B] CN1CCC[C@@H]1CC(=O)N[C@H]1c2ccccc2C[C@@H]1NC(=O)c1ccc2c(ccn2C)c1
## Task When their logD values are compared, which is larger, A or B ? Write down the label of the entry you select.
## Result A
(A: 3.1, B: 1.8)

---

Experiment: Protein binding in dog plasma
Assay type: ADME, cell-free, Canis lupus familiaris
Conditions: read-out: PPB (converted)
PARAMETER MEASURED: fraction unbound
Lab note: jot down the number only; don't add units.

## Task Look up and state reported fraction unbound for CN(C)CCNC(=O)[C@H]1c2ccccc2C[C@@H]1NC(=O)c1cc2ccccc2[nH]1
## Result 0.92

---

Target: Growth hormone secretagogue receptor type 1 (Homo sapiens, UniProt Q92847)
Sequence (Q92847 whole entry): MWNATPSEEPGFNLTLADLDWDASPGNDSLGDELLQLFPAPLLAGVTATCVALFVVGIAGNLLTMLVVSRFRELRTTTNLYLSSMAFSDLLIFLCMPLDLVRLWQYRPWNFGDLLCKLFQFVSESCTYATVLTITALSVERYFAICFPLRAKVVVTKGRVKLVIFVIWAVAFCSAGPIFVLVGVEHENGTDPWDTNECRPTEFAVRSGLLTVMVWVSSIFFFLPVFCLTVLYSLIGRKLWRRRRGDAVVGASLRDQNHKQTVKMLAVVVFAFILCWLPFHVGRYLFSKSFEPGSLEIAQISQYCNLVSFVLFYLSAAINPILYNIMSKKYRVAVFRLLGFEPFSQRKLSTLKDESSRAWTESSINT
Experiment: Agonist activity at human GHS receptor assessed as intracellular myo-IP1 secretion after 90 mins by HTRF analysis
Format: functional, cell-based
Settings: read-out: EC50
PARAMETER MEASURED: EC50 (nM)

[a] Cn1c(C(=O)N[C@H]2Cc3ccccc3[C@@H]2NC(=O)c2cnccc2N)cc2ccccc21
[b] Nc1ccncc1C(=O)N[C@H]1c2ccccc2C[C@@H]1NC(=O)c1cc2ccccc2[nH]1
[c] Cn1ccc2c(F)c(C(=O)N[C@H]3Cc4ccccc4[C@@H]3NC(=O)c3cnccc3N)ccc21
[d] CN1CCO[C@@H](C(=O)N[C@H]2c3ccccc3C[C@@H]2NC(=O)c2ccc3c(ccn3C)c2)C1
## Task Kindly provide a descending ordering of the above compounds based on their EC50. Give your ranking as a list of the labels in the requested order.
## Result d, b, a, c

---

Experiment: Apparent permeability across apical to basolateral side in human Caco2 cells at pH 7.4
Assay type: ADME, cell-based
Details: Caco-2, pH 7.4
PARAMETER MEASURED: Papp A→B (nm/s)

[P] CN(C)CCNC(=O)[C@H]1c2ccccc2C[C@@H]1NC(=O)c1cc2ccccc2[nH]1
[Q] Cc1ccc2[nH]c(C(=O)N[C@H]3Cc4ccccc4[C@@H]3NC(=O)[C@@H]3CN(C)CCO3)cc2c1
## Task From the recorded data, which exceeds the other in Papp A→B: P or Q ? Answer by quoting the chosen item's label.
## Result Q

---

Biological target: Growth hormone secretagogue receptor type 1 (Homo sapiens, UniProt Q92847)
Assay: Displacement of human [125I]-ghrelin from GHS-R1a (unknown origin) expressed in HEK293 cell membranes after 1 hr by radioligand binding assay
Conditions: read-out: IC50
PARAMETER MEASURED: IC50 (nM)

Here's what some known entries look like.
## Task Give reported IC50 value for CN1CCC[C@@H](C(=O)N[C@H]2c3ccccc3C[C@@H]2NC(=O)c2ccc3c(ccn3C)c2)C1
## Result 528

## Task Note IC50 for the molecule shown: Cn1c(C(=O)N[C@H]2Cc3ccccc3[C@@H]2NC(=O)c2cnccc2N)cc2ccccc21
## Result 246

## Task Supply recorded IC50 for CN1CCCO[C@H](C(=O)N[C@H]2c3ccccc3C[C@@H]2NC(=O)c2ccc3c(ccn3C)c2)C1 here.
## Result 71

[P] CN(C)CCNC(=O)[C@@H]1c2ccccc2C[C@H]1NC(=O)c1cc2ccccc2[nH]1
[Q] CN1CCCCC(C(=O)N[C@H]2c3ccccc3C[C@@H]2NC(=O)c2ccc3c(ccn3C)c2)C1 (stereo in doubt; 27)
## Task When P and Q are compared, which has the higher number for IC50? Please indicate the selected item by its label.
## Result P

[a] N#Cc1ccc2[nH]c(C(=O)N[C@H]3Cc4ccccc4[C@@H]3NC(=O)c3cnccc3N)cc2c1
[b] COCCNCCC(=O)N[C@H]1c2ccccc2C[C@@H]1NC(=O)c1cc2ccccc2n1C
[c] Cc1ccc2[nH]c(C(=O)N[C@H]3Cc4ccccc4[C@@H]3NC(=O)c3cnccc3N)cc2c1
[d] Cc1ccc2[nH]c(C(=O)N[C@@H]3Cc4ccccc4[C@H]3NC(=O)CCN(C)C)cc2c1
[e] Nc1ccncc1C(=O)N[C@H]1c2ccccc2C[C@@H]1NC(=O)c1nc2cc(F)c(F)cc2[nH]1
## Task Kindly order the items shown according to IC50, from the highest value down. Give me the labels in the order the question wants.
## Result d, b, a, e, c

[1] CN1CCO[C@H](C(=O)N[C@H]2c3ccccc3C[C@@H]2NC(=O)c2ccc3c(ccn3C)c2)C1
[2] CN1CCC[C@H](C(=O)N[C@H]2c3ccccc3C[C@@H]2NC(=O)c2ccc3c(ccn3C)c2)C1
[3] Nc1ccncc1C(=O)N[C@H]1c2ccccc2C[C@@H]1NC(=O)c1cc2c(F)cc(F)cc2[nH]1
## Task Put these in order: smallest IC50 first, largest last. # list labels per requested ordering
## Result 3, 1, 2

---

Biological target: Growth hormone secretagogue receptor type 1 (Homo sapiens, UniProt Q92847)
Test: Agonist activity at human GHS receptor assessed as intracellular myo-IP1 secretion after 90 mins by HTRF analysis
Type: functional, cell-based
Conditions: read-out: EC50
pEC50: −log10 of the molar value.
PARAMETER MEASURED: pEC50

## Task Assign pEC50 to the following record: Nc1ccncc1C(=O)N[C@H]1c2ccccc2C[C@@H]1NC(=O)c1cc2c(F)cc(F)cc2[nH]1
## Result 8.52

## Task Determine its reported pEC50: Cn1ccc2cc(C(=O)N[C@H]3Cc4ccccc4[C@@H]3NC(=O)[C@@H]3CNCCO3)ccc21
## Result 7.28

[1] CN1CCC[C@@H](C(=O)N[C@H]2c3ccccc3C[C@@H]2NC(=O)c2ccc3c(ccn3C)c2)C1
[2] CN1CCCCC(C(=O)N[C@H]2c3ccccc3C[C@@H]2NC(=O)c2ccc3c(ccn3C)c2)C1 (stereo in doubt; 28)
[3] Cc1ccc2[nH]c(C(=O)N[C@H]3Cc4ccccc4[C@@H]3NC(=O)[C@H]3COCCN(C)C3)cc2c1
## Task Output the entries ranked by pEC50 from maximum down to minimum. Use the labels to give the requested order.
## Result 3, 2, 1

[I] CN1CCO[C@H](C(=O)N[C@H]2c3ccccc3C[C@@H]2NC(=O)c2ccc3c(ccn3C)c2)C1
[II] Cc1ccc2[nH]c(C(=O)N[C@@H]3Cc4ccccc4[C@H]3NC(=O)CCN(C)C)cc2c1
## Task Identify the item whose pEC50 is the smaller number: I or II Return value: the label identifying the chosen record.
## Result II
(II: 6.65, I: 7.68)

[P] Cn1ccc2cc(C(=O)N[C@H]3Cc4ccccc4[C@@H]3NC(=O)c3cnccc3N)c(F)cc21
[Q] CN(C)CCNC(=O)[C@H]1c2ccccc2C[C@@H]1NC(=O)c1cc2ccccc2[nH]1
## Task Compare the recorded pEC50 of P and Q ; state which is larger. Label of pick, please.
## Result Q
(Q: 8.70, P: 6.87)

[1] CN(C)CCNC(=O)[C@@H]1c2ccccc2C[C@H]1NC(=O)c1cc2ccccc2[nH]1
[2] Cn1ccc2cc(C(=O)N[C@H]3Cc4ccccc4[C@@H]3NC(=O)c3cnccc3N)cc(F)c21
## Task // compare measured pEC50 between 1 and 2 ; output the lower one Reply with the label of the item you choose.
## Result 1
